- MEASUREMENT NOTES: binders of probe aFGF10 on microarray, primary screen, stem cell growth factor project, biochemical, small-molecule microarray, fluorescence 635/667 (AID 1071);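 further: score merges 667 nm spot intensity and signal to noise from triplicate slides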
- PROTOCOL CONDITIONS: higher = more signal
# composite z-score per entry
RECORDED METRIC: composite z-score

compound="COc1cc2c(cc1O)C(C1CC1)N(Cc1ccc([N+](=O)[O-])o1)CC2 (stereo not drawn)" quantitative_result=0.682
compound=COCCCN1C(=O)[C@@]2(Cc3ccccc31)c1ccccc1C(=O)N(Cc1ccccc1OC)[C@H]2c1ccc(CO)cc1 quantitative_result=-0.279
compound="COc1cc2c(cc1O)C(c1ccc(CN3CCCC3)cc1)N(Cc1cccc(OC(F)(F)F)c1)CC2 (stereo not drawn)" quantitative_result=0.0247
compound=NC(=O)NCC#Cc1ccc2c(c1)[C@]1(C(=O)N2)[C@H](C(=O)N2CCCCCCC2)[C@H]2C(=O)O[C@H](c3ccccc3)[C@H](c3ccccc3)N2[C@@H]1c1ccc(O)cc1 quantitative_result=0.8
compound="CCN(CC)c1ccc(N2CC=CC34O[C@@H]5C=CCOC(=O)[C@@H]5[C@H]3C(=O)N(CCO)[C@@H]4C2=O)cc1 (stereo partly drawn)" quantitative_result=-1.03
compound=COCCOC(=O)N1C(=O)[C@@]2(c3cc(C#CCCO)ccc31)[C@H](c1ccccc1OCCO)N1[C@H](c3ccccc3)[C@H](c3ccccc3)OC(=O)[C@H]1[C@@H]2C(=O)N1CCc2cc(OC)c(OC)cc2C1 quantitative_result=1.04
compound=CC(C)C[C@@H]1NC(=O)[C@H]2C[C@@H](C(=O)NCCCCCCNC(=O)CS)[C@@H](c3ccc(O)cc3)N2C1=O quantitative_result=0.437
compound=COCC(=C=CC[C@@H](O)c1ccc(OCCO)cc1)C[C@@H](O)COCc1ccccc1 quantitative_result=0.734
